All values here come from ChEMBL document CHEMBL2440076.

assay: Growth inhibition of human Hs 578T cells after 48 hrs by sulforhodamine B assay; assay type: functional; settings: read-out: LC50 (the source's name)
measuredAttribute: CC50

smilesString | CC50
O=C(Nc1cccc(-n2cc(-c3ccncc3)c(-c3ccc(Cl)c(O)c3)n2)c1)Nc1cccc(C(F)(F)F)c1 | > 32.5 µM

Next up:
Give CC50 for the following molecule: `O=C(Nc1cccc(-n2cc(-c3ccncc3)c(-c3ccc(Cl)c(O)c3)n2)c1)Nc1cc(C(F)(F)F)cc(C(F)(F)F)c1` > 50 µM

====

tested on: MDA-MB-231; assay: Growth inhibition of human MDA-MB-231 cells after 48 hrs by sulforhodamine B assay; assay type: functional; conditions: MDA-MB-231, 48 h
measuredAttribute: LC50 (µM)
// units = µM; emit number, no label

smilesString | LC50, µM
O=C(Nc1cccc(-n2cc(-c3ccncc3)c(-c3ccc(Cl)c(O)c3)n2)c1)Nc1ccc(Cl)c(C(F)(F)F)c1 | 11.4
COc1cc(-c2nn(-c3cccc(NC(=O)Nc4cccc(C(F)(F)F)c4)c3)cc2-c2ccncc2)ccc1Cl | 25.5

Next up:
Give LC50 for the following compound: `O=C(Nc1cccc(-n2cc(-c3ccncc3)c(-c3ccc(Cl)c(O)c3)n2)c1)Nc1cc(C(F)(F)F)cc(C(F)(F)F)c1` 3.72

====

tested on: CAKI-1; assay: Growth inhibition of human CAKI-1 cells assessed as cell growth at 10 uM after 48 hrs by sulforhodamine B assay; assay type: functional; settings: CAKI-1, 48 h, read-out: Activity
As shown below, each of these compounds has a reported growth at 10 µM value.
// units = %; emit number, no label

Solved cases below.
smilesString | targetUnderTest | growth at 10 µM (%)
Cc1cc(C(=O)Nc2cccc(-n3cc(-c4ccncc4)c(-c4ccc(Cl)c(O)c4)n3)c2)ccc1Br | CAKI-1 | 93.9
O=C(Nc1cccc(-n2cc(-c3ccncc3)c(-c3ccc(Cl)c(O)c3)n2)c1)Nc1cccc(C(F)(F)F)c1 | CAKI-1 | 30.1
COc1cc(-c2nn(-c3cccc(NC(=O)Nc4ccc(Cl)c(C(F)(F)F)c4)c3)cc2-c2ccncc2)ccc1Cl | CAKI-1 | 14.7
COc1cc(-c2nn(-c3cccc(NC(=O)c4ccc(N5CCOCC5)c(C(F)(F)F)c4)c3)cc2-c2ccncc2)ccc1Cl | CAKI-1 | 39.9
O=C(Nc1cccc(-n2cc(-c3ccncc3)c(-c3ccc(Cl)c(O)c3)n2)c1)c1ccc(Cl)c(C(F)(F)F)c1 | CAKI-1 | 100

Give growth at 10 µM for the following compound: `O=C(Nc1cccc(-n2cc(-c3ccncc3)c(-c3ccc(Cl)c(O)c3)n2)c1)c1ccccc1` 90.3

Give growth at 10 µM for the following compound: `COc1cc(-c2nn(-c3cccc(NC(=O)c4cccc(C(F)(F)F)c4)c3)cc2-c2ccncc2)ccc1Cl` 44.7

Give growth at 10 µM for the following compound: `O=C(Nc1cccc(-n2cc(-c3ccncc3)c(-c3ccc(Cl)c(O)c3)n2)c1)Nc1ccc(Cl)c(C(F)(F)F)c1` 17.3

====

system: MOLT-4; assay: Growth inhibition of human MOLT4 cells assessed as cell growth at 10 uM after 48 hrs by sulforhodamine B assay; assay type: functional; conditions: MOLT-4, 48 h, read-out: Activity
measuredAttribute: growth at 10 µM (%)
// units = %; emit number, no label

smilesString | targetUnderTest | outputUnit | growth at 10 µM
O=C(Nc1cccc(-n2cc(-c3ccncc3)c(-c3ccc(Cl)c(O)c3)n2)c1)c1ccccc1 | MOLT-4 | % | 69.5
O=C(Nc1cccc(-n2cc(-c3ccncc3)c(-c3ccc(Cl)c(O)c3)n2)c1)Nc1cccc(C(F)(F)F)c1 | MOLT-4 | % | 12.5

Give growth at 10 µM for the following compound: `COc1cc(-c2nn(-c3cccc(NC(=O)Nc4cccc(C(F)(F)F)c4)c3)cc2-c2ccncc2)ccc1Cl` -26.3

Give growth at 10 µM for the following compound: `O=C(Nc1cccc(-n2cc(-c3ccncc3)c(-c3ccc(Cl)c(O)c3)n2)c1)Nc1cc(C(F)(F)F)cc(C(F)(F)F)c1` -18.5

====

As shown below, each of these molecules has a reported growth at 10 µM value.
system: SF-268; test: Growth inhibition of human SF268 cells assessed as cell growth at 10 uM after 48 hrs by sulforhodamine B assay; format: functional; conditions: SF-268, 48 h, read-out: Activity
// units = %; emit number, no label

smilesString | endpointResult
COc1cc(-c2nn(-c3cccc(NC(=O)Nc4ccccc4)c3)cc2-c2ccncc2)ccc1Cl | 81.2
COc1cc(-c2nn(-c3cccc(NC(=O)Nc4cccc(C(F)(F)F)c4)c3)cc2-c2ccncc2)ccc1Cl | 2.35
O=C(Nc1cccc(-n2cc(-c3ccncc3)c(-c3ccc(Cl)c(O)c3)n2)c1)Nc1cccc(C(F)(F)F)c1 | 28.5

Next up:
Provide the reported growth at 10 µM (system: SF-268) for `COc1cc(-c2nn(-c3cccc(NC(=O)c4ccccc4)c3)cc2-c2ccncc2)ccc1Cl` 18.7

====

system: SN12C; assay: Growth inhibition of human SN12C cells after 48 hrs by sulforhodamine B assay; format: functional
As shown below, each of these molecules has a reported GI50 value.
// units = µM; emit number, no label

smilesString | endpointResult
COc1cc(-c2nn(-c3cccc(NC(=O)Nc4ccc(Cl)c(Cl)c4)c3)cc2-c2ccncc2)ccc1Cl | 1.47
O=C(Nc1cccc(-n2cc(-c3ccncc3)c(-c3ccc(Cl)c(O)c3)n2)c1)Nc1cc(C(F)(F)F)cc(C(F)(F)F)c1 | 1.03
COc1cc(-c2nn(-c3cccc(NC(=O)c4ccc(Cl)c(C(F)(F)F)c4)c3)cc2-c2ccncc2)ccc1Cl | 11.2

Next up:
Give GI50 for the following molecule: `O=C(Nc1cccc(-n2cc(-c3ccncc3)c(-c3ccc(Cl)c(O)c3)n2)c1)Nc1cccc(C(F)(F)F)c1` 2.01

====

system: CAKI-1; experiment: Growth inhibition of human CAKI-1 cells assessed as cell growth at 5X10'-6 M after 48 hrs by sulforhodamine B assay; assay type: functional; conditions: CAKI-1, 48 h, read-out: Activity
measuredAttribute: growth at 5 µM

smilesString | targetUnderTest | growth at 5 µM
COc1cc(-c2nn(-c3cccc(NC(=O)Nc4cccc(C(F)(F)F)c4)c3)cc2-c2ccncc2)ccc1Cl | CAKI-1 | -14%
COc1cc(-c2nn(-c3cccc(NC(=O)Nc4cc(C(F)(F)F)cc(C(F)(F)F)c4)c3)cc2-c2ccncc2)ccc1Cl | CAKI-1 | -20%
O=C(Nc1cccc(-n2cc(-c3ccncc3)c(-c3ccc(Cl)c(O)c3)n2)c1)Nc1cc(C(F)(F)F)cc(C(F)(F)F)c1 | CAKI-1 | -4%

Next up:
Give growth at 5 µM for the following compound: `COc1cc(-c2nn(-c3cccc(NC(=O)Nc4ccc(Cl)c(Cl)c4)c3)cc2-c2ccncc2)ccc1Cl` -13%

====

test system: 786-0; assay: Growth inhibition of human 786-0 cells after 48 hrs by sulforhodamine B assay; assay type: functional; settings: 786-0, 48 h, read-out: LC50 (the source's name)
measuredAttribute: CC50 (µM)
// units = µM; emit number, no label

smilesString | CC50, µM
O=C(Nc1cccc(-n2cc(-c3ccncc3)c(-c3ccc(Cl)c(O)c3)n2)c1)Nc1cc(C(F)(F)F)cc(C(F)(F)F)c1 | 18

Give CC50 for the following molecule: `O=C(Nc1cccc(-n2cc(-c3ccncc3)c(-c3ccc(Cl)c(O)c3)n2)c1)c1ccc(N2CCOCC2)c(C(F)(F)F)c1` 46.3

====

As shown below, each of these molecules has a reported growth at 50 µM value.
system: SF-539; test: Growth inhibition of human SF539 cells assessed as cell growth at 5X10'-5 M after 48 hrs by sulforhodamine B assay; format: functional; conditions: SF-539, 48 h, read-out: Activity
// units = %; emit number, no label

smilesString | growth at 50 µM (%)
O=C(Nc1cccc(-n2cc(-c3ccncc3)c(-c3ccc(Cl)c(O)c3)n2)c1)c1ccc(N2CCOCC2)c(C(F)(F)F)c1 | -18

Give growth at 50 µM for the following molecule: `COc1cc(-c2nn(-c3cccc(NC(=O)Nc4cc(C(F)(F)F)cc(C(F)(F)F)c4)c3)cc2-c2ccncc2)ccc1Cl` -78

Give growth at 50 µM for the following molecule: `O=C(Nc1cccc(-n2cc(-c3ccncc3)c(-c3ccc(Cl)c(O)c3)n2)c1)Nc1cc(C(F)(F)F)cc(C(F)(F)F)c1` -96

Give growth at 50 µM for the following molecule: `COc1cc(-c2nn(-c3cccc(NC(=O)c4cccc(C(F)(F)F)c4)c3)cc2-c2ccncc2)ccc1Cl` -23

Give growth at 50 µM for the following molecule: `COc1cc(-c2nn(-c3cccc(NC(=O)Nc4cccc(C(F)(F)F)c4)c3)cc2-c2ccncc2)ccc1Cl` -58

====

As shown below, each of these compounds has a reported growth at 10 µM value.
test system: PC-3; assay: Growth inhibition of human PC3 cells assessed as cell growth at 10 uM after 48 hrs by sulforhodamine B assay; format: functional; details: PC-3, 48 h, read-out: Activity
// units = %; emit number, no label

smilesString | growth at 10 µM, %
O=C(Nc1cccc(-n2cc(-c3ccncc3)c(-c3ccc(Cl)c(O)c3)n2)c1)Nc1ccc(Cl)c(Cl)c1 | 5.43
O=C(Nc1cccc(-n2cc(-c3ccncc3)c(-c3ccc(Cl)c(O)c3)n2)c1)Nc1cccc(C(F)(F)F)c1 | 4.28
COc1cc(-c2nn(-c3cccc(NC(=O)c4ccc(N5CCOCC5)c(C(F)(F)F)c4)c3)cc2-c2ccncc2)ccc1Cl | 8.17

Next up:
Give growth at 10 µM for the following compound: `O=C(Nc1cccc(-n2cc(-c3ccncc3)c(-c3ccc(Cl)c(O)c3)n2)c1)c1ccccc1` 50.3
